# Target Or Test System: T1, His-tagged, full-length PCSK9 (human, UniProt Q8NBP7 31-692)
# T1 construct: The secreted protein is autocleaved into a prodomain and a catalytic/Cys-rich chain that starts at S153; also called His-PCSK9
# T1 sequence (Q8NBP7 other isoform, or with tags, fused parts or gaps limits assumed): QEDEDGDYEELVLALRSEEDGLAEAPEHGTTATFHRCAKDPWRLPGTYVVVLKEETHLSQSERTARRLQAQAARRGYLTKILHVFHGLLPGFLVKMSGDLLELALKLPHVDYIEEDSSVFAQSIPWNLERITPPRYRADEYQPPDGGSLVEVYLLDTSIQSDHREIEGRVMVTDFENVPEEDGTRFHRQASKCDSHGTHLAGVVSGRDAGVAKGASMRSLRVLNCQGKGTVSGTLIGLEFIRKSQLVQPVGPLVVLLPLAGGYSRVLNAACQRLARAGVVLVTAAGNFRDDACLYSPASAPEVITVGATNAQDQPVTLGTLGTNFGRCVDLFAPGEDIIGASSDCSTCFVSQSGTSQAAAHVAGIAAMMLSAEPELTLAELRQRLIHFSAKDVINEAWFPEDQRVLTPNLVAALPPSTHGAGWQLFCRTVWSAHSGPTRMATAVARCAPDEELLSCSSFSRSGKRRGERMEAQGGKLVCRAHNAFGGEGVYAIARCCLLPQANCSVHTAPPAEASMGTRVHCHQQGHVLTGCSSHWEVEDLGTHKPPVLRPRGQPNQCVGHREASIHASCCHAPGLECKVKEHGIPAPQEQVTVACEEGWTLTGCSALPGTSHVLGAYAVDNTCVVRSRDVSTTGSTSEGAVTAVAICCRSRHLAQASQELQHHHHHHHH
# Experiment: TR-FRET competition; His-PCSK9, competitor EGF(A)-Fc
Square brackets hold non-standard residues; d marks the D form. Ends that are not written are not given here. hArg = N=C(N)NCCCC[C@H](N)C(=O)O
Reported log10(IC50) values for a set of binders
Readout Label: log10(IC50) (log10 of the value in µM)

- Binder: "WNLVRIGTLR (also: further groups not given here, Structure printed only as a drawing) [Compound 185]"
  log10(IC50): 0.76
- Binder: "WNLV[hArg]IGLLR (also: end groups and other groups only in drawing, Structure printed only as a drawing) [Compound 197]"
  log10(IC50): -0.01
- Binder: "WNLVRIGLLR (also: further groups not given here, Structure printed only as a drawing) [Compound 150]"
  log10(IC50): 1.34
- Binder: "Ac-ESFPGWNLV[hArg]IGLLR-NH2 (SMILES CC[C@H](C)[C@H](NC(=O)[C@H](CCCCNC(=N)N)NC(=O)[C@@H](NC(=O)[C@H](CC(C)C)NC(=O)[C@H](CC(N)=O)NC(=O)[C@H](Cc1c[nH]c2ccccc12)NC(=O)CNC(=O)[C@@H]1CCCN1C(=O)[C@H](Cc1ccccc1)NC(=O)[C@H](CO)NC(=O)[C@H](CCC(=O)O)NC(C)=O)C(C)C)C(=O)NCC(=O)N[C@@H](CC(C)C)C(=O)N[C@@H](CC(C)C)C(=O)N[C@@H](CCCNC(=N)N)C(N)=O) [Compound 227]"
  log10(IC50): 0.40
- Binder: "WNLV[hArg]IGLLR (also: further groups not given here, Structure printed only as a drawing) [Compound 209]"
  log10(IC50): 0.46
- Binder: "Ac-DSYPGWNLVRIGLLR-NH2 [Compound 155]"
  log10(IC50): 1.04
